- Procedure Text: E. coli acrAB mutant growth effects, primary screen, E. coli filamentation inducers, strain DRC39, OD650, 24 h (AID 1178);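 also: growth measured as culture turbidity by optical density at 650 nm; test concentration not given here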
- Test Context: higher = more signal, called active from +8 up or from −8 down
# if value of z-score reaches 0.8, tag 1; if it stays below, tag -1

{"columns": ["Compound", "Class Name"],
 "data": [
  ["COc1cc2c(cc1OC)CN(C(=O)[C@H]1[C@@H]3C(=O)O[C@@H](c4ccccc4)[C@@H](c4ccccc4)N3[C@@H](c3ccc(O)cc3)[C@]13C(=O)Nc1ccc(C#CC4(O)CCCCCC4)cc13)CC2", -1],
  ["COC(=O)Cn1c(C(=O)N2CCCC2)cc2c1C[C@H]1CN(C(=O)c3ccccc3)[C@@](Cc3ccccc3)(C(=O)OC)[C@@H]21", -1],
  ["COc1ccc(CCN2C(=O)[C@@]3(c4ccc([N+](=O)[O-])cc4)CC(=O)N(CC45CC6CC(CC(C6)C4)C5)[C@@H]3c3ccc(CO)cc32)cc1", -1],
  ["O=C1O[C@H](c2ccccc2)[C@H](c2ccccc2)N2[C@H]1[C@@H](C(=O)Nc1nc3ccccc3s1)[C@]1(C(=O)Nc3ccc(C#CC4(O)CCCCCC4)cc31)[C@H]2c1ccc(O)cc1", -1],
  ["C[C@@H]1CC[C@H]2C(=O)N3CCC[C@H]3C(=O)N2[C@H]1c1ccc(Br)cc1", 1],
  ["C/C(=N\\O)C(=O)NCCCCCNC(=O)OCc1ccccc1", 1],
  ["C=CCc1cccc([C@H]2N[C@H](C(=O)O)CC[C@@H]2C)c1", -1],
  ["C=C(/C(=C/C[C@@H](OC(=O)c1ccncc1)c1ccc(CO)o1)c1cnc2ccccc2c1)C(C)C", 1],
  ["COc1ccc(C(=O)Nc2ccc(CN3C(=O)[C@]4(O[C@H](CCn5cc(CCO)nn5)[C@@H]([Si](C)(C)c5ccc(OC)cc5)[C@@H]4C)c4ccccc43)cc2)cc1", 1],
  ["O=C1OCCC=C[C@H]2OC34C=CCN(Cc5ccccc5)C(=O)[C@H]3N(CCO)C(=O)[C@@H]4C12 (some centres undefined)", 1],
  ["O=C1C[C@@](C(=O)NC2CC2)(c2ccc([N+](=O)[O-])cc2)[C@@H](c2ccc(CO)cc2I)N1CC12CC3CC(CC(C3)C1)C2", -1],
  ["C[N+](C)(C)CCCC[C@@H]1NC(=O)[C@H]2C[C@@H](C(=O)NCc3ccc(F)cc3)[C@@H](c3cccc(OCCO)c3)N2C1=O", -1],
  ["C[C@]1(C(=O)NCCN2CCOCC2)c2ccccc2C(=O)N(Cc2ccccc2)[C@H]1c1ccc(CO)cc1", -1],
  ["C[C@@H]1C=CCC(=O)OC[C@H]2O[C@@H](C=C[C@@H]2O)[C@H](C)C=CCC(=O)OC[C@H]2O[C@H]1C=C[C@@H]2O", -1]
]}
